Data provenance: ChEMBL document CHEMBL1201862

Measured GI50 accompanies every entry in the list below.
- System: CCRF-CEM
- experiment summary: NCI tumour cell line growth inhibition, 48 h
Calls of active or inactive are those of the source. Cut-off read from the data, not from the text of the source: active = GI50 up to about 1.1 µM and inactive = higher.

{"columns": ["compound", "GI50"],
 "data": [
  ["CNC(=S)Nc1ccc(OC)c2ccccc12", "> 10 µM (inactive)"],
  ["CC(=O)/N=C1\\C=C(NC(C)=O)C(=O)c2ccccc21", "2.84 µM (inactive)"],
  ["CC1CCc2c(sc3ncnc(N/N=C/c4ccc(Cl)c(Cl)c4)c23)C1 (stereo not given)", "4.3 µM (inactive)"],
  ["Cc1cc(O)c2c(c1O)C(=O)c1cccc(O)c1C2=O", "> 100 µM (inactive)"],
  ["CCOC(=O)CCC(C(=O)OCC)n1nc2ccc(Nc3c(C)[n+]([O-])c4cc(F)c(OCC)cc4[n+]3[O-])cc2n1 (stereo not given)", "> 100 µM (inactive)"],
  ["O=C1C=C(Nc2ccccc2C(=O)CC(=O)C(=O)Nc2ccc(Cl)cc2)c2ccccc2C1=O", "3.59 µM (inactive)"],
  ["CN(c1ccccc1)C1C(=O)N(c2ccccc2)C1/C=C/c1ccccc1 (stereo not given)", "> 100 µM (inactive)"],
  ["COC1C=C(Nc2cccc(Cl)c2)C(=O)C1 (stereo not given)", "63.1 µM (inactive)"],
  ["O=C1CC23CCCCCCCCCCC2(C1)CC(=O)C3 (stereo not given)", "18.9 µM (inactive)"],
  ["O=c1[nH]nc(-c2ccccc2)n1/N=C\\CC/C=N\\n1c(-c2ccccc2)n[nH]c1=O", "> 10 µM (inactive)"]
]}
